Species: Rattus norvegicus
Experiment: DrugMatrix - Regimen: Daily Repeat
Format: toxicity, organism-based, Sprague-Dawley
Set-up: regimen Daily Repeat, gender Male, age 6-8 weeks
Conditions: in vivo, iv, 0 mg/kg, 72 h, tissue Plasma, dose level Control, time 3 day, vehicle 100 % SALINE
endpoint: POTASSIUM (MEQ/L)
Give just the numeric value; MEQ/L need not be written.

In: I have this compound here, CC[C@]1(O)C[C@@H]2CN(CCc3c([nH]c4ccccc34)[C@@](C(=O)OC)(c3cc4c(cc3OC)N(C)[C@H]3[C@@](O)(C(=O)OC)[C@H](OC(C)=O)[C@]5(CC)C=CCN6CC[C@]43[C@@H]65)C2)C1 , and I need its recorded POTASSIUM.
Out: 5.67

In: Query: POTASSIUM; subject: CCc1c2c(nc3ccc(OC(=O)N4CCC(N5CCCCC5)CC4)cc13)-c1cc3c(c(=O)n1C2)COC(=O)[C@]3(O)CC
Out: 6.68

In: May I ask what POTASSIUM has been recorded for CC(=O)N[C@@H]1[C@H](Oc2c3cc4cc2Oc2ccc(cc2Cl)[C@@H](O[C@@H]2O[C@@H](CO)[C@@H](O)[C@H](O)[C@@H]2NC(C)=O)[C@@H]2NC(=O)[C@H](NC(=O)[C@@H]4NC(=O)[C@H]4NC(=O)[C@@H](Cc5ccc(c(Cl)c5)O3)NC(=O)[C@H](N)c3ccc(O)c(c3)Oc3cc(O)cc4c3)c3ccc(O)c(c3)-c3c(O[C@H]4O[C@H](CO)[C@@H](O)[C@@H](O)[C@@H]4O)cc(O)cc3[C@@H](C(=O)O)NC2=O)O[C@@H](CO)[C@@H](O)[C@@H]1O ?
Out: 6.48

In: Endpoint output: POTASSIUM of CCC1=C[C@@H]2CN(C1)Cc1c([nH]c3ccccc13)[C@@](C(=O)OC)(c1cc3c(cc1OC)N(C)[C@H]1[C@@](O)(C(=O)OC)[C@H](OC(C)=O)[C@]4(CC)C=CCN5CC[C@]31[C@@H]54)C2 . Value?
Out: 6.68
